Value source: patent US5658890A

- Measured on: Human IMPDH type II (Homo sapiens)
- Construct: Dr. George D. Markham, Institute for Cancer Research, Fox Chase Cancer Center, Fox Chase, Pa
- Assay info: Inhibition of human IMPDH type II by TAD analogues
- Type: biochemical
- Applied conditions: NAD variable substrate, IMP constant at 100 μM, non-competitive, 37° C.; read-out: Kis
Endpoint label: pKi
Keep in mind that pKi stands for -log10 of concentration in molar terms.

Here is how some molecules turned out for pKi.
- Molecule: "NC(=O)c1csc([C@@H]2O[C@H](COP(=O)(O)OP(=O)(O)OC[C@H]3O[C@@H](n4cnc5c(N)ncnc54)[C@H](O)[C@@H]3F)[C@@H](O)[C@H]2O)n1 [Compound 4]"
  pKi: 5.82
- Molecule: "NC(=O)c1csc([C@@H]2O[C@H](COP(=O)(O)OP(=O)(O)OC[C@H]3O[C@@H](n4cnc5c(N)ncnc54)[C@H](F)[C@@H]3O)[C@@H](O)[C@H]2O)n1 [Compound 3]"
  pKi: 5.22
- Molecule: "NC(=O)c1csc([C@@H]2O[C@H](COP(=O)(O)OP(=O)(O)OC[C@H]3O[C@@H](n4cnc5c(N)ncnc54)[C@@H](F)[C@@H]3O)[C@@H](O)[C@H]2O)n1 [Compound 5]"
  pKi: 4.89

Proceeding to the next molecule to report its pKi.
query: For the molecule shown here, NC(=O)c1csc([C@@H]2O[C@H](COP(=O)(O)C(F)(F)P(=O)(O)OC[C@H]3O[C@@H](n4cnc5c(N)ncnc54)[C@H](O)[C@@H]3O)[C@@H](O)[C@H]2O)n1 [β-CF2 -TAD, β-difluoromethylene TAD] , give the reported pKi.
result: 6.52

---

- Measured on: horse liver alcohol dehydrogenase (ADH) (Equus caballus, UniProt P00327)
- Construct: horse liver alcohol dehydrogenase (ADH); from tissue; host or cells: horse liver
- Sequence (P00327 whole entry): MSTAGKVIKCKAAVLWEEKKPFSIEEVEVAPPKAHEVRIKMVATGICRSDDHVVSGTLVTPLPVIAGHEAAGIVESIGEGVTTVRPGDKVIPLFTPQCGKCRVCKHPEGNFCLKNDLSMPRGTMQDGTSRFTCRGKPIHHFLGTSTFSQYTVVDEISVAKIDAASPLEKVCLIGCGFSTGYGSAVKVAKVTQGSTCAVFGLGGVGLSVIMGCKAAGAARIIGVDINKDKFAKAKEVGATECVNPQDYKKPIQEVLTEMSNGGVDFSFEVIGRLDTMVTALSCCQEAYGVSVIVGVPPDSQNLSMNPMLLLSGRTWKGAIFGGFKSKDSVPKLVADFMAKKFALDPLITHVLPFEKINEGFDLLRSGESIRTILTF
- Assay info: Inhibition of horse liver alcohol dehydrogenase (ADH), NADH absorbance at 340 nm
- Format: biochemical
- Applied conditions: non-competitive, with respect to NAD, pH 8.0; read-out: Ki, inhibition of ADH
Endpoint label: Ki (nM)
Just the number in nM, nothing appended.

query: For NC(=O)c1cncc([C@@H]2O[C@H](COP(=O)(O)OP(=O)(O)OC[C@H]3O[C@@H](n4cnc5c(N)ncnc54)[C@H](O)[C@@H]3O)[C@@H](O)[C@H]2O)c1 [CNAD] , what is its reported Ki?
result: 2

---

- Measured on: horse liver alcohol dehydrogenase (ADH) (Equus caballus, UniProt P00327)
- Construct: horse liver alcohol dehydrogenase (ADH); from tissue; host or cells: horse liver
- Assay info: Inhibition of horse liver alcohol dehydrogenase (ADH), NADH absorbance at 340 nm
- Format: biochemical
- Applied conditions: direct least-squares fit to Michaelis-Menten rate equations, pH 8.0; read-out: apparent Ki (Ki') with respect to NAD
- Experimental: 2. Inhibition of horse liver alcohol dehydrogenase (ADH) and bovine glutamate dehydrogenase (GDH) Rate measurements for each of the dehydrogenases used in this study are based on the spectral properties of NADH. […] Rates, using absorbance measurements, were calculated using a millimolar extinction coefficient of 6.22/cm for NADH. […] Initial rates vo were measured at total concentrations of CNAD ([I]) of 0, 2.4, 9.6, and 19.2 nM over four concentrations of ADH ([E]). […]
Endpoint label: Ki (nM)
Quick reminder: number only, in nM, skip the unit.

query: Param readout= Ki; system= horse liver alcohol dehydrogenase (ADH) (Equus caballus, UniProt P00327); entry= NC(=O)c1cncc([C@@H]2O[C@H](COP(=O)(O)OP(=O)(O)OC[C@H]3O[C@@H](n4cnc5c(N)ncnc54)[C@H](O)[C@@H]3O)[C@@H](O)[C@H]2O)c1 [CNAD] ; returns value.
result: 6

---

- Measured on: UniProtKB P00366
- Sequence (P00366 58-558): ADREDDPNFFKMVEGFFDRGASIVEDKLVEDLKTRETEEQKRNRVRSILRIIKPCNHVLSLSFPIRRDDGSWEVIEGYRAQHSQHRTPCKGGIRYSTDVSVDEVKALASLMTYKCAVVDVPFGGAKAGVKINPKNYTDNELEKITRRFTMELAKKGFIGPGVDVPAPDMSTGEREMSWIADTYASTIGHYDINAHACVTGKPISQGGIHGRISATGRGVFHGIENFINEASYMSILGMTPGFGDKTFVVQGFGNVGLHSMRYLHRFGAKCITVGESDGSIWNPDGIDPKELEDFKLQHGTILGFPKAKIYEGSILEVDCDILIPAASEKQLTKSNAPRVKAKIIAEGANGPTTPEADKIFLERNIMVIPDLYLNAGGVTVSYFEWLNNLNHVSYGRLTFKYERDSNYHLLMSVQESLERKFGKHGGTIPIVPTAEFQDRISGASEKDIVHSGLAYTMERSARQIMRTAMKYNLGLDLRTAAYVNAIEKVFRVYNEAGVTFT
Endpoint label: Ki (µM)
The response must be a number in µM with no trailing unit.

query: Data request, read-out Ki, for NC(=O)c1cncc([C@@H]2O[C@H](COP(=O)(O)OP(=O)(O)OC[C@H]3O[C@@H](n4cnc5c(N)ncnc54)[C@H](O)[C@@H]3O)[C@@H](O)[C@H]2O)c1 [CNAD]
result: 15

---

- Measured on: horse liver alcohol dehydrogenase (LADH) (Equus caballus)
Endpoint label: Ki (µM)
Unit µM implied. Number only.

query: Consider the compound shown here: "NC(=O)c1csc([C@@H]2O[C@H](COP(=O)(O)OP(=O)(O)OC[C@H]3O[C@@H](n4cnc5c(N)ncnc54)[C@H](F)[C@@H]3O)[C@@H](O)[C@H]2O)n1" What is its recorded Ki?
result: 100

---

- Measured on: Human IMPDH type II (Homo sapiens, UniProt P12268)
- Construct: Dr. George D. Markham, Institute for Cancer Research, Fox Chase Cancer Center, Fox Chase, Pa
- Assay info: Inhibition of human IMPDH type II by TAD analogues
- Assay type: biochemical
- Applied conditions: NAD variable substrate, IMP constant at 100 μM, non-competitive, 37° C.; read-out: Kii
Item-by-item account of pKi
Units for pKi: none; it is -log10 of a concentration expressed in mol/L.

Completed entries (count: 3):
- Structure as smiles: "NC(=O)c1csc([C@@H]2O[C@H](COP(=O)(O)OP(=O)(O)OC[C@H]3O[C@@H](n4cnc5c(N)ncnc54)[C@@H](F)[C@@H]3O)[C@@H](O)[C@H]2O)n1"
  pKi: 5.54
- Structure as smiles: "NC(=O)c1csc([C@@H]2O[C@H](COP(=O)(O)OP(=O)(O)OC[C@H]3O[C@@H](n4cnc5c(N)ncnc54)[C@H](F)[C@@H]3O)[C@@H](O)[C@H]2O)n1"
  pKi: 6.30
- Structure as smiles: "NC(=O)c1csc([C@@H]2O[C@H](COP(=O)(O)OP(=O)(O)OC[C@H]3O[C@@H](n4cnc5c(N)ncnc54)[C@H](O)[C@@H]3F)[C@@H](O)[C@H]2O)n1"
  pKi: 6.15

Please look at the following compound next.
query: Given the compound "NC(=O)c1csc([C@@H]2O[C@H](COP(=O)(O)C(F)(F)P(=O)(O)OC[C@H]3O[C@@H](n4cnc5c(N)ncnc54)[C@H](O)[C@@H]3O)[C@@H](O)[C@H]2O)n1" , what is its reported pKi?
result: 6.77
